Catalogue of O-acyl pro-drug (% present) readings, one per entry.
Experiment: Acyl group migration (rearrangement) of pro-drug in DMSO-d6/buffer solution monitored by 19F-NMR
Format: physicochemical
Settings: pH 4, 40° C., time 24 hr
recorded_endpoint: O-acyl pro-drug (% present) (%)

INSERT INTO measurements (smiles_input, observed_result) VALUES
  ('CCCN(CCC)C(=O)c1cc(C(=O)O[C@H](CNCc2cccc(CC)c2)[C@@H](N)Cc2cc(F)cc(F)c2)cc(-c2ncco2)c1.Cl.Cl', 0),
  ('CCCN(CCC)C(=O)c1cc(C(=O)N(Cc2cccc(C(F)(F)F)c2)C[C@@H](O)[C@@H](N)Cc2cc(F)cc(F)c2)cc(-c2ncco2)c1.Cl', 0),
  ('CCCN(CCC)C(=O)c1cc(C(=O)N(Cc2cccc(CC)c2)C[C@@H](O)[C@@H](N)Cc2cc(F)cc(F)c2)cc(-c2ncco2)c1.Cl', 0),
  ('CCCN(CCC)C(=O)c1cc(C(=O)O[C@H](CNC2(c3cccc(CC)c3)CC2)[C@@H](N)Cc2cc(F)cc(F)c2)cc(-c2ncco2)c1.Cl.Cl', 0),
  ('C#Cc1cccc(C2(NC[C@@H](OC(=O)c3cc(C(=O)N(CCC)CCC)cc(-c4ncco4)c3)[C@@H](N)Cc3cc(F)cc(F)c3)CC2)c1', 9);
